System: Influenza virus strain A/CA/04/2009 (H1N1)
Assay: organism not typed
Type: cell-based
Details: MDCK, 72 h, read-out: H1N1 EC50 (@ 50% Via)
Measured metric: EC50 (µM)
Your answer is read as µM, so omit the unit and give the number.

[
  {
    "Molecule": "COc1ccc(-c2nc(=O)[nH]c3c2CCc2ccccc2-3)cc1 [compound 22125]",
    "Unit symbol": "µM",
    "EC50": 24
  }
]

// sample O=C1NC2=C(CCc3ccccc32)C(c2ccc(F)c(Br)c2)N1 (stereo not drawn) [compound 22409] , its EC50 was 1.4

Recorded result, COc1ccc(C2NC(=O)NC3=C2CN(C(=O)CSCCO)c2ccccc23)cc1Br (stereo not drawn) [compound 25413] , EC50: 3.8

Quick note, EC50 for COc1ccc(C2NC(=O)NC3=C2CN(C(=O)CN2CCC2)c2ccccc23)cc1Br (stereo not drawn) [compound 25411] landed at 3.7

Reported EC50 for COc1ccc(C2NC(=O)NC3=C2CN(C(=O)CNCCO)c2ccccc23)cc1Br (stereo not drawn) [compound 24717] was 5.6

Per the records, this molecule ( COC(=O)N1CC2=C(NC(=O)NC2c2ccc(OC)c(Br)c2)c2ccccc21 (stereo not drawn) [compound 25408] ) has EC50 equal to 9.7

Record summary for O=C1NC2=C(CCc3ccccc32)C(c2ccc([N+](=O)[O-])cc2)N1 (stereo not drawn) [compound 22349] : reported EC50 = 17.7

The recorded EC50 for COc1ccc(C2NC(=O)NC3=C2CCCc2ccccc23)cc1Br (stereo not drawn) [compound 23096] is 0.153

Per the records, this molecule ( CCC(=O)N1CC2=C(NC(=O)NC2c2ccc(OC)c(Br)c2)c2ccccc21 (stereo not drawn) [compound 23205] ) has EC50 equal to 10.1

The recorded EC50 for COc1ccc(C2NC(=O)NC3=C2CCc2ccccc23)cc1C (stereo not drawn) [compound 22516] is 10

Kindly note the recorded EC50 for CC(=O)Oc1ccc(C2NC(=O)NC3=C2COc2ccccc23)cc1Br (stereo not drawn) [compound 23097] , which is 1

Lab note: measured EC50 of COc1ccc(C2NC(=O)NC3=C2CN(C(=O)CNC(C)=O)c2ccccc23)cc1Br (stereo not drawn) [compound 25350] was 0.622

# EC50 of COc1ccc(C2NC(=O)NC3=C2CN(C(=O)CN2CCOCC2)c2ccccc23)cc1Br (stereo not drawn) [compound 23272] = 3.5

// field: EC50; key: Cc1ccc(C2NC(=O)NC3=C2COc2ccccc23)cc1C (stereo not drawn) [compound 22105] ; value = 14.9

EC50 for O=C1NC2=C(COc3ccccc32)C(c2ccc(O)c(Br)c2)N1 (stereo not drawn) [compound 22701] is 1.6

Lookup result for COc1cccc(C2NC(=O)NC3=C2COc2ccccc23)c1 (stereo not drawn) [compound 22107] ; measured EC50: 46
